A collection of compounds and their measured pIC50
protocol: Inhibition of yeast alpha-glucosidase using PNP glycoside as substrate after 30 mins by spectrophotometry
Design: species or system Saccharomyces cerevisiae
pIC50: −log10 of the molar value.
assayMetric: pIC50

givenSmiles | assayMetric | measuredNumber
Cc1ccc2oc3cc(O)c(-c4c(O)ccc5ccc(O)cc45)c(O)c3c(=O)c2c1 | pIC50 | 3.95
O=c1c2c(O)cc(O)cc2oc2cc(O)c(-c3c(O)ccc4ccc(O)cc34)c(O)c12 | pIC50 | 4.76
O=c1c2ccccc2oc2c(-c3c(O)ccc4ccccc34)c(O)c(-c3c(O)ccc4ccccc34)c(O)c12 | pIC50 | 5.00
O=c1c2ccccc2oc2cc(O)c(-c3c(O)ccc4ccccc34)c(O)c12 | pIC50 | 4.32
O=c1c2ccc(O)cc2oc2cc(O)c(-c3c(O)ccc4ccccc34)c(O)c12 | pIC50 | 4.98
O=c1c2ccc(O)cc2oc2cc(O)c(-c3c(O)ccc4ccc(O)cc34)c(O)c12 | pIC50 | 4.32
